Answer each item with its documented MIC.

Task: Field: MIC (K. pneumoniae PCI 602). Entry: O=C(CSc1ccnc2ccccc12)c1ccc(OCc2ccccc2)cc1 [Compound 1]
Result: > 100 µg/mL

Task: Field: MIC (K. pneumoniae PCI 602). Entry: O=C(CSc1ccnc2ccccc12)c1ccc(N2CCCCC2)cc1 [Compound 22]
Result: > 100 µg/mL

Task: Form: Entry = O=C(CSc1ccnc2ccccc12)c1ccc(N2CCOCC2)cc1 [Compound 11] | System = K. pneumoniae PCI 602 | MIC = ____
Result: > 100 µg/mL

Task: Form field: MIC recorded for CC[C@H]1OC(=O)[C@H](C)[C@@H](O[C@H]2C[C@@](C)(OC)[C@@H](O)[C@H](C)O2)[C@H](C)[C@@H](O[C@@H]2O[C@H](C)C[C@H](N(C)C)[C@H]2O)[C@](C)(OC)C[C@@H](C)C(=O)[C@H](C)[C@@H](O)[C@]1(C)O [clarithromycin, reference compound] with K. pneumoniae PCI 602 (enter value)
Result: 6.25 µg/mL
